The reported numbers originate from paper PMC9421655.

systemTested: LPA1 (Homo sapiens, UniProt Q92633)
Sequence (Q92633 whole entry, species assumed): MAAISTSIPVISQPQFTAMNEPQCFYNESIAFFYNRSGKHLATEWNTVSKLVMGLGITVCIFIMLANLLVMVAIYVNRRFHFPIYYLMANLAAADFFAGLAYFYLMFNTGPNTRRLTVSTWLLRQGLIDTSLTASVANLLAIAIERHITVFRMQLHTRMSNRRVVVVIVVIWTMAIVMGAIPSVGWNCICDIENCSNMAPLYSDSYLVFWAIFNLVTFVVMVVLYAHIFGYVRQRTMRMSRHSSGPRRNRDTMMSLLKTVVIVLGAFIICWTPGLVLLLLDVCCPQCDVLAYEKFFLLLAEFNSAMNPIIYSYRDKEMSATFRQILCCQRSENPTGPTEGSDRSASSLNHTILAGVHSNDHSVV
assayText: cell-based
runConditions: read-out: IC50 (μM) LPA1; antagonism of 10 μM LPA; mean ± s.e.m.
endpoint: IC50 (µM)
Dear colleague, please return just the value in µM, with no unit written.

**Query** Can you share its IC50? I mean this compound: Cc1noc(-c2ccc(CSCCC(=O)O)cc2)c1NC(=O)OC(C)c1ccccc1Cl (stereo not shown) [Ki16425, reference compound]
**Result** 0.8

---

Exercise: state measured Papp at 5 h, 200 μM for each of the compounds provided.
assayText: Parallel artificial membrane permeability assay (PAMPA)
Format: in vitro ADME
runConditions: pH 7.4, PAMPA, PBS pH 7.4, 5 h, rt, read-out: P (cm/s), permeability value

**Query** What does the data say about its Papp at 5 h, 200 μM? Entry: `Cc1[nH]nc(-c2ccc(OCC(=O)O)cc2O)c1Oc1ccc(Cl)cc1Cl`
**Result** 0.11 ×10⁻⁶ cm/s

**Query** Entry `Cc1[nH]nc(-c2ccc(OCc3nnn[nH]3)cc2O)c1Oc1ccc(Cl)cc1Cl` please
**Result** 6.1 ×10⁻⁶ cm/s

---

assayText: Metabolic stability in mouse liver microsomes
Format: in vitro ADME
runConditions: male, CD-1, mouse, liver microsomes (pooled), 1 mg/mL protein, NADPH, 37 °C, read-out: stability (t1/2, min) MLMs
Method: Reactions were initiated by the addition of a suspension of mouse liver microsomes (MLMs) (male CD-1 mice pooled, Sigma-Aldrich) or human liver microsomes (HLMs) (male human pooled, Sigma-Aldrich), respectively, at a final protein concentration of 1 mg/mL. […] The relative disappearance of the compound under study over the course of the incubation was monitored by HPLC-MS using SIM mode. […]
endpoint: half-life at 1 μM

**Query** // query half-life at 1 μM value for entry `Cc1[nH]nc(-c2ccc(OCc3nnn[nH]3)cc2O)c1Oc1ccc(Cl)cc1Cl`
**Result** 50 min

**Query** Same read-out for `Cc1[nH]nc(-c2ccc(OCC(=O)O)cc2O)c1Oc1ccc(Cl)cc1Cl` ?
**Result** ~16 min

---

endpoint: melting point

**Query** # lookup: melting point of COC(=O)COc1ccc(-c2n[nH]c(C)c2Oc2ccc(Cl)cc2Cl)c(O)c1 [Compound 44]
**Result** > 210 °C (dec.)

**Query** Could you do the same for Cc1[nH]nc(-c2ccc(O)cc2O)c1Oc1ccc(Cl)cc1Cl [Compound 42] , please?
**Result** 206 to 208 °C

**Query** Thanks! And Cc1[nH]nc(-c2ccc(OCC(=O)O)cc2O)c1Oc1ccc(Cl)c(Cl)c1 [Compound 12] ?
**Result** > 240 °C (dec.)

**Query** Record: Cc1[nH]nc(-c2ccc(OCC(=O)O)cc2O)c1Oc1cccc(Cl)c1 [Compound 10]
**Result** > 240 °C (dec.)

**Query** Quick one: Cc1[nH]nc(-c2ccc(OCc3nnn[nH]3)cc2O)c1Oc1ccc(Cl)cc1Cl [Compound 54]
**Result** 180 to 182 °C

**Query** Queued: Cc1[nH]nc(-c2ccc(OCC(=O)O)cc2O)c1Oc1ccc(F)cc1F [Compound 53]
**Result** > 210 °C (dec.)

**Query** What do you get for Cc1[nH]nc(-c2ccc(OCC(=O)O)cc2)c1Oc1ccc(Cl)cc1Cl [Compound 30] ?
**Result** 158 to 160 °C

**Query** Now the same for Cc1[nH]nc(-c2ccc(OCC(=O)O)cc2O)c1Oc1ccccc1 [Compound 3]
**Result** > 180 °C (dec.)

**Query** Follow-up item: Cc1[nH]nc(-c2ccc(OCc3nnn[nH]3)cc2O)c1Oc1ccc(F)cc1F [Compound 55]
**Result** > 210 °C (dec.)

**Query** What do we get for COc1ccc(-c2n[nH]c(C)c2Oc2ccc(Cl)cc2Cl)c(O)c1 [Compound 43] ?
**Result** 220 to 222 °C

**Query** Now the compound O=C(O)COc1ccc(-c2cc[nH]n2)c(O)c1 [Compound 2]
**Result** 92 to 94 °C

**Query** One more compound: Cc1[nH]nc(-c2ccc(OCC(=O)O)cc2O)c1Oc1ccc(Cl)cc1Cl [Compound 13]
**Result** > 196 °C (dec.)

**Query** Further, for Cc1[nH]nc(-c2ccc(OCC(=O)O)cc2O)c1Oc1ccc(Cl)cc1 [Compound 11] ?
**Result** 121 to 123 °C
